Data provenance: patent US20210277109A1

Molecular target: T1, human ROR1 'Frizzled-Kringle domain' (human, UniProt Q01973)
T1 construct: used plain or biotinylated
T1 sequence (Q01973 165-406 limits assumed): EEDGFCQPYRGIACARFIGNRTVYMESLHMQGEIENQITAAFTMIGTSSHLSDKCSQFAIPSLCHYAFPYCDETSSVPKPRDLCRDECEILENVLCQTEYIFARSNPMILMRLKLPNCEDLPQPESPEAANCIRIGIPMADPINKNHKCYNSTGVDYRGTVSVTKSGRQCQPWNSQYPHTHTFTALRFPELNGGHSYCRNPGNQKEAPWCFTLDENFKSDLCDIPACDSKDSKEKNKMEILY
Experiment: ELISA, biotinylated antigen on avidin plate; BCC supernatant
Reported ELISA OD450 by item:
PROPERTY_LABEL: ELISA OD450 (OD450)

- 338H4 (antibody, V domains shown, chimeric counterpart m8; also called rabbit IgG of BCC well 338H4) VH: QSVEESGGRLVTPGTPLTLTCTVSGFSLSSYAMSWVRQAPGRGLEWIGIIYASGSTYYASWAKGRFTISKTSTTVDLKITSPTTEDTATYFCARIYDGMDLWGPGTLVTVSS VL: DIVMTQTPASVSAAVGGTVTINCQASQNIYSYLSWYQQKPGQPPKRLIYLASTLASGVPSRFKSSGSGTEYTLTISDLECDDAATYYCQSNYNGNYGFGGGTEVEVK: 1.8
- 323H7 (antibody, V domains shown, chimeric counterpart m3; also called rabbit IgG of BCC well 323H7) VH: QEQLKESGGGLVTPGGTLTLTCTASGFTISRYHMTWVRQAPGKGLEWIGHIYVNNDDTDYASWAKGRFTISKTSTTVDLKITSPTTEDTATYFCARLDVGGGGAYIGDIWGQGTLVTVSS VL: QAVVTQTPSSVSAAVGGTVTISCQSSQSVYNNNDLAWYQQKPGQPPKLLIYYASTLASGVSSRFKGSGSGTQFTLAISDLECDDSATYYCAGGYDTDGLDTFAFGGGTEVEVK: 0.16
- 324E2 (antibody, V domains shown, chimeric counterpart m6; also called rabbit IgG of BCC well 324E2) VH: QSVEESGGRLVTPGTPLTLTCTVSGFSLSNNAITWVRQAPGKGLEYIGIISSSGTTYYASWAKGRFTISKTSSTTVDLKMTSLTTEDTATYFCAGAFSVWGPGTLVTVSS VL: AQVLTQTPSSVSAAVGGTVTINCQSSQSVNNNDLAWFQQKPGQPPKRLIYWASKLASGVPSRFKGSGSGTQFILTISDLECDDAATYYCAGGYSGNIYGFGGGTEVEVK: 0.1
